system: S. aureus SA1199; experiment: Checkerboard two-fold broth microdilution, MIC and MBC; assay type: cell-based, Staphylococcus aureus; conditions: Staphylococcus aureus, SA1199, read-out: MBC^a = MBC in the absence of INF 401, Table 2; S. aureus SA1199; antibiotic alone; unit inferred
Measurement label: MBC

Take a look at these entries with their results.
Could you share which MBC value was measured for CN(C)[C@@H]1C(O)=C(C(N)=O)C(=O)[C@@]2(O)C(O)=C3C(=O)c4c(O)cccc4[C@@](C)(O)[C@H]3C[C@@H]12 [Tetracycline] ?
> 8 µg/mL

What value of measured MBC is listed for CC[n+]1c(-c2ccccc2)c2cc(N)ccc2c2ccc(N)cc21 [Ethidium bromide] ?
> 128 µg/mL

If you can, please state the reported MBC value of O=C(N[C@H](CO)[C@H](O)c1ccc([N+](=O)[O-])cc1)C(Cl)Cl [Chloramphenicol] .
> 64 µg/mL

Here's the next entry for you.
Which value of MBC has been reported for CC[C@H]1OC(=O)[C@H](C)[C@@H](O[C@H]2C[C@@](C)(OC)[C@@H](O)[C@H](C)O2)[C@H](C)[C@@H](O[C@@H]2O[C@H](C)C[C@H](N(C)C)[C@H]2O)[C@](C)(O)C[C@@H](C)C(=O)[C@H](C)[C@@H](O)[C@]1(C)O [Erythromycin] in the records?
> 8 µg/mL

###

Reported MBC^b = MBC in the presence of 10 μg/ml of INF 402 by item:
test system: S. aureus SA1199; test: Checkerboard two-fold broth microdilution, MIC and MBC; assay type: cell-based, Staphylococcus aureus; conditions: Table 2, plus 10 μg/ml INF 402, unit not given

Field: example entries. Status: answers known.
Query for S. aureus SA1199: what MBC^b = MBC in the presence of 10 μg/ml of INF 402 does the record show for CN(C)[C@@H]1C(O)=C(C(N)=O)C(=O)[C@@]2(O)C(O)=C3C(=O)c4c(O)cccc4[C@@](C)(O)[C@H]3C[C@@H]12 [Tetracycline] ?
2

Lab note: need MBC^b = MBC in the presence of 10 μg/ml of INF 402 with S. aureus SA1199 for entry CC[C@H]1OC(=O)[C@H](C)[C@@H](O[C@H]2C[C@@](C)(OC)[C@@H](O)[C@H](C)O2)[C@H](C)[C@@H](O[C@@H]2O[C@H](C)C[C@H](N(C)C)[C@H]2O)[C@](C)(O)C[C@@H](C)C(=O)[C@H](C)[C@@H](O)[C@]1(C)O [Erythromycin] , please look it up.
1

Lookup: MBC^b = MBC in the presence of 10 μg/ml of INF 402 / S. aureus SA1199 / CC[n+]1c(-c2ccccc2)c2cc(N)ccc2c2ccc(N)cc21 [Ethidium bromide]
>128

Short answer please: MBC^b = MBC in the presence of 10 μg/ml of INF 402, S. aureus SA1199, entry O=C(N[C@H](CO)[C@H](O)c1ccc([N+](=O)[O-])cc1)C(Cl)Cl [Chloramphenicol]
8

Please examine the following record next.
Fill in the recorded MBC^b = MBC in the presence of 10 μg/ml of INF 402 for this compound, with S. aureus SA1199 as test system: CCC[C@@H]1C[C@@H](C(=O)N[C@@H]([C@H]2O[C@H](SC)[C@H](O)[C@@H](O)[C@H]2O)[C@H](C)Cl)N(C)C1 [Clindamycin]
2

###

Form field: MBC (one value per entry).
tested on: S. aureus SA1199; assay: Checkerboard two-fold broth microdilution, MIC and MBC; format: cell-based, Staphylococcus aureus; conditions: Staphylococcus aureus, SA1199, read-out: MBC^a = MBC in the absence of INF 401, Table 1; S. aureus SA1199; antibiotic alone; unit inferred
I only need the number, in µg/mL, no unit after it.

API: value(readout=MBC, system=S. aureus SA1199) for record CO[C@H]1/C=C/O[C@@]2(C)Oc3c(C)c(O)c4c(O)c(c(/C=N/N5CCN(C)CC5)c(O)c4c3C2=O)NC(=O)/C(C)=C\C=C\[C@H](C)[C@H](O)[C@@H](C)[C@@H](O)[C@@H](C)[C@H](OC(C)=O)[C@@H]1C [Rifampin]
0.06

In the following, a different compound is considered.
Record lookup: for S. aureus SA1199, what MBC belongs to CN(C)[C@@H]1C(O)=C(C(N)=O)C(=O)[C@@]2(O)C(O)=C3C(=O)c4c(O)cccc4[C@@](C)(O)[C@H]3C[C@@H]12 [Tetracycline] ?
8

###

tested on: S. aureus strain SA1199; test: Screening and titration of potentiators with erythromycin (4 μg/ml), viability read by transfer to fresh medium; assay type: cell-based, Staphylococcus aureus; conditions: in the presence of 4 μg/ml erythromycin
Measurement label: Activity (minimal concentration required to kill 99.9% of S. aureus)

Take a look at these entries with their results.
For the record `Cc1cccc(CNC(=O)N/N=C/c2c(O)ccc3ccccc23)c1` , what value of Activity (minimal concentration required to kill 99.9% of S. aureus) is listed for S. aureus strain SA1199?
>10 µg/mL

State its Activity (minimal concentration required to kill 99.9% of S. aureus) on S. aureus strain SA1199: `O=C(N/N=C/c1c(O)ccc2ccccc12)Nc1ccccc1`
0.3 µg/mL

# query: Activity (minimal concentration required to kill 99.9% of S. aureus) | item `Cc1ccc(CNC(=O)N/N=C/c2c(O)ccc3ccccc23)cc1` | system: S. aureus strain SA1199
1.25 µg/mL

New cases:
Lab note: need Activity (minimal concentration required to kill 99.9% of S. aureus) with S. aureus strain SA1199 for entry CCOc1cccc(/C=N/NC(=O)Cc2ccc(C)cc2)c1O [drawing 37] , please look it up.
>10 µg/mL

Field: Activity (minimal concentration required to kill 99.9% of S. aureus) (S. aureus strain SA1199). Entry: `O=C(Cc1ccccc1)N/N=C/c1c(O)ccc2ccccc12`
0.15 µg/mL

API: value(readout=Activity (minimal concentration required to kill 99.9% of S. aureus), system=S. aureus strain SA1199) for record CCOc1cccc(/C=N/NC(=O)Cc2ccc(C)cc2)c1O [drawing 38]
1.25 µg/mL

Recall the recorded Activity (minimal concentration required to kill 99.9% of S. aureus) for `COc1ccccc1NC(=O)N/N=C/c1c(O)ccc2ccccc12` with S. aureus strain SA1199 and state it.
>10 µg/mL

###

test system: S. aureus SA1199; assay: Checkerboard two-fold broth microdilution, MIC and MBC; format: cell-based, Staphylococcus aureus; details: Staphylococcus aureus, SA1199, read-out: MBC^a = MBC in the absence of INF 401, Table 1; S. aureus SA1199; antibiotic alone; unit inferred
Measurement label: MBC

Examples with answers:
Which MBC is listed for CC[n+]1c(-c2ccccc2)c2cc(N)ccc2c2ccc(N)cc21 [Ethidium bromide] ?
> 128 mg/L

Bench note: what MBC did O=C(N[C@H](CO)[C@H](O)c1ccc([N+](=O)[O-])cc1)C(Cl)Cl [Chloramphenicol] show?
> 64 mg/L

# ---- query compound ----
Fill in the blank: the reported MBC of CC[C@H]1OC(=O)[C@H](C)[C@@H](O[C@H]2C[C@@](C)(OC)[C@@H](O)[C@H](C)O2)[C@H](C)[C@@H](O[C@@H]2O[C@H](C)C[C@H](N(C)C)[C@H]2O)[C@](C)(O)C[C@@H](C)C(=O)[C@H](C)[C@@H](O)[C@]1(C)O [Erythromycin] is ____.
16 to 32 mg/L
